B1: Syntaxin-binding protein 4, residues 493 to 538; numbered along this chain, Q6ZWJ1 (parent)
chain: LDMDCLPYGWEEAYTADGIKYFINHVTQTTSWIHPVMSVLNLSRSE

Variants of: B1
Assay: abundance fitness (aPCA) (normalised: wild type 0, dead -1); higher = more abundant; growth selection in yeast, the domain comes from the species named
Settings: Homo sapiens
experimental.readout: abundance fitness
The response must contain the number and no unit.

Examples with answers:
mutant.label	abundance fitness
L6Q	-0.817
S38L	-0.78
A13K	-0.534
D2E	-0.206
D17K	-0.547
N24S	-0.93

What value of abundance fitness has been recorded for this entry: N41L
-0.684

Continue with L6Y
-0.709
